This listing pairs molecules with measured RLU.
- studySystem: human TAS2R1 (Homo sapiens, UniProt Q9NYW7)
- Construct: expressed in transfected cells; host or cells: HEK293T-Gα16gust44
- Sequence (Q9NYW7 1-299): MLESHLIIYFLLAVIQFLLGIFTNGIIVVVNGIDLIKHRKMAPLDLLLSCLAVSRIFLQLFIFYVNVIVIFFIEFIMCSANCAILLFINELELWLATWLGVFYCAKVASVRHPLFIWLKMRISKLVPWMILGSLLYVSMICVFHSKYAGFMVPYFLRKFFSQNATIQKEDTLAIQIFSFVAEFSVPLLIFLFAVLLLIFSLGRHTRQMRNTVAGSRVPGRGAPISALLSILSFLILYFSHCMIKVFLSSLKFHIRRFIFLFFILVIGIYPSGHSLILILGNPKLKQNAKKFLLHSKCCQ
- protocolDescription: Calcium imaging assay (FLIPR), HEK293T-Gα16gust44 cells transfected with human TAS2R1
- Type: cell-based
- studyConditions: Time 18 s

{"smilesStr": "C[C@H](CCC(=O)NCCS(=O)(=O)O)[C@H]1CC[C@H]2[C@@H]3[C@H](O)C[C@@H]4C[C@H](O)CC[C@]4(C)[C@H]3C[C@H](O)[C@]12C", "studySystem": "human TAS2R1 (Homo sapiens, UniProt Q9NYW7)", "unitName": "RLU", "RLU": 30.6672}
{"smilesStr": "C[C@H](CCC(=O)NCC(=O)O)[C@H]1CC[C@H]2[C@@H]3[C@H](O)C[C@@H]4C[C@H](O)CC[C@]4(C)[C@H]3C[C@H](O)[C@]12C", "studySystem": "human TAS2R1 (Homo sapiens, UniProt Q9NYW7)", "unitName": "RLU", "RLU": 11.3452}
{"smilesStr": "C[C@H](CCC(=O)O)[C@H]1CC[C@H]2[C@@H]3CC[C@@H]4C[C@H](O)CC[C@]4(C)[C@H]3C[C@H](O)[C@]12C", "studySystem": "human TAS2R1 (Homo sapiens, UniProt Q9NYW7)", "unitName": "RLU", "RLU": -2.035}
{"smilesStr": "C[C@H](CCC(=O)NCCS(=O)(=O)O)[C@H]1CC[C@H]2[C@@H]3CC[C@@H]4C[C@H](O)CC[C@]4(C)[C@H]3CC[C@]12C", "studySystem": "human TAS2R1 (Homo sapiens, UniProt Q9NYW7)", "unitName": "RLU", "RLU": 9.703}

----------
This listing pairs compounds with measured RLU.
- studySystem: human TAS2R1 (Homo sapiens, UniProt Q9NYW7)
- Construct: expressed in transfected cells; host or cells: HEK293T-Gα16gust44
- protocolDescription: Calcium imaging assay (FLIPR), HEK293T-Gα16gust44 cells transfected with human TAS2R1
- Format: cell-based
- studyConditions: Time 161.547 s

{"smilesStr": "C[C@H](CCC(=O)NCCS(=O)(=O)O)[C@H]1CC[C@H]2[C@@H]3CC[C@@H]4C[C@H](O)CC[C@]4(C)[C@H]3CC[C@]12C", "RLU, RLU": 237.537}
{"smilesStr": "C[C@H](CCC(=O)O)[C@H]1CC[C@H]2[C@@H]3CC[C@@H]4C[C@H](O)CC[C@]4(C)[C@H]3C[C@H](O)[C@]12C", "RLU, RLU": 302.763}
{"smilesStr": "C[C@H](CCC(=O)NCC(=O)O)[C@H]1CC[C@H]2[C@@H]3[C@H](O)C[C@@H]4C[C@H](O)CC[C@]4(C)[C@H]3C[C@H](O)[C@]12C", "RLU, RLU": 291.362}
{"smilesStr": "C[C@H](CCC(=O)NCCS(=O)(=O)O)[C@H]1CC[C@H]2[C@@H]3[C@H](O)C[C@@H]4C[C@H](O)CC[C@]4(C)[C@H]3C[C@H](O)[C@]12C", "RLU, RLU": 175.173}

----------
- studySystem: human TAS2R1 (Homo sapiens)
- Construct: expressed in transfected cells; host or cells: HEK293T-Gα16gust44
- protocolDescription: Calcium imaging assay (FLIPR), HEK293T-Gα16gust44 cells transfected with human TAS2R1
- Assay type: cell-based
- studyConditions: calcium trace, sheet TAS2R1; Time 353.562 s
experimentalEndpoint: RLU (RLU)

{"smilesStr": "C[C@H](CCC(=O)O)[C@H]1CC[C@H]2[C@@H]3[C@H](O)C[C@@H]4C[C@H](O)CC[C@]4(C)[C@H]3CC[C@]12C", "unitName": "RLU", "valueReported": 136.304}
{"smilesStr": "C[C@H](CCC(=O)O)[C@H]1CC[C@H]2[C@@H]3[C@H](O)C[C@@H]4C[C@H](O)CC[C@]4(C)[C@H]3C[C@H](O)[C@]12C", "unitName": "RLU", "valueReported": -49.428}
{"smilesStr": "C[C@H](CCC(=O)O)[C@H]1CC[C@H]2[C@@H]3[C@@H](O)C[C@@H]4C[C@H](O)CC[C@]4(C)[C@H]3CC[C@]12C", "unitName": "RLU", "valueReported": -12.0438}
{"smilesStr": "C[C@H](CCC(=O)O)[C@H]1CC[C@H]2[C@@H]3CC[C@@H]4C[C@H](O)CC[C@]4(C)[C@H]3CC[C@]12C", "unitName": "RLU", "valueReported": 189.761}

----------
This listing pairs molecules with measured RLU.
- studySystem: human TAS2R14 (Homo sapiens, UniProt Q9NYV8)
- Construct: expressed in transfected cells; host or cells: HEK293T-Gα16gust44
- Sequence (Q9NYV8 1-317): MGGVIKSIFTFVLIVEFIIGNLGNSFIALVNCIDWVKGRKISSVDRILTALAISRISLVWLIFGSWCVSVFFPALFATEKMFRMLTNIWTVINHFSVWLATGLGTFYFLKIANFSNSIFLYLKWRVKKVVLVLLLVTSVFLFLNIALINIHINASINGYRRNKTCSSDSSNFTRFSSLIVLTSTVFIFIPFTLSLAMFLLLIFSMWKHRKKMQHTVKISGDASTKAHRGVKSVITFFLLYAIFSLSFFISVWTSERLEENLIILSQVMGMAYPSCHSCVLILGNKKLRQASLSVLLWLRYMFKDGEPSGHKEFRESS
- protocolDescription: Calcium imaging assay (FLIPR), HEK293T-Gα16gust44 cells transfected with human TAS2R14
- Type: cell-based
- studyConditions: TAS2R14 trace; Time (s) 56.797 (Chenodeoxycholic Acid 56.781)
experimentalEndpoint: RLU (RLU)

{"smilesStr": "C[C@H](CCC(=O)NCC(=O)O)[C@H]1CC[C@H]2[C@@H]3[C@H](O)C[C@@H]4C[C@H](O)CC[C@]4(C)[C@H]3C[C@H](O)[C@]12C", "valueReported": 424.679}
{"smilesStr": "C[C@H](CCC(=O)O)[C@H]1CC[C@H]2[C@@H]3[C@H](O)C[C@@H]4C[C@H](O)CC[C@]4(C)[C@H]3C[C@H](O)[C@]12C", "valueReported": 603.138}
{"smilesStr": "C[C@H](CCC(=O)NCCS(=O)(=O)O)[C@H]1CC[C@H]2[C@@H]3[C@H](O)C[C@@H]4C[C@H](O)CC[C@]4(C)[C@H]3C[C@H](O)[C@]12C", "valueReported": 470.92}
{"smilesStr": "C[C@H](CCC(=O)NCCS(=O)(=O)O)[C@H]1CC[C@H]2[C@@H]3CC[C@@H]4C[C@H](O)CC[C@]4(C)[C@H]3CC[C@]12C", "valueReported": 163.155}
{"smilesStr": "C[C@H](CCC(=O)O)[C@H]1CC[C@H]2[C@@H]3[C@H](O)C[C@@H]4C[C@H](O)CC[C@]4(C)[C@H]3CC[C@]12C", "valueReported": 514.521}

----------
- studySystem: mouse Tas2r144 (Mus musculus, UniProt Q7TQB8)
- Construct: expressed in transfected cells; host or cells: HEK293T-Gα16gust44
- Sequence (Q7TQB8 whole entry): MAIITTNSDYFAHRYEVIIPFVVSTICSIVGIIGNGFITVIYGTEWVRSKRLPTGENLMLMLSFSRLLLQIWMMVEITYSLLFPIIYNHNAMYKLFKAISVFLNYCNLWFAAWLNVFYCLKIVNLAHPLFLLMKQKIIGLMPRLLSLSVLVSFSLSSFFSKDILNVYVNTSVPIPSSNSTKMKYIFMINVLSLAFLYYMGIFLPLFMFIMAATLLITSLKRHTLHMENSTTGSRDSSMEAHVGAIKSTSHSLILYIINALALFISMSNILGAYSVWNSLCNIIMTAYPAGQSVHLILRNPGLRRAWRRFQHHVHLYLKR
- protocolDescription: Calcium imaging assay (FLIPR), HEK293T-Gα16gust44 cells transfected with mouse Tas2r144
- Assay type: cell-based
- studyConditions: Time 46.781 s

{"compound": "C[C@H](CCC(=O)NCC(=O)O)[C@H]1CC[C@H]2[C@@H]3[C@H](O)C[C@@H]4C[C@H](O)CC[C@]4(C)[C@H]3C[C@H](O)[C@]12C [Glycocholic Acid, glycocholic acid]", "unitName": "RLU", "RLU": 375.35}
{"compound": "C[C@H](CCC(=O)NCCS(=O)(=O)O)[C@H]1CC[C@H]2[C@@H]3[C@H](O)C[C@@H]4C[C@H](O)CC[C@]4(C)[C@H]3C[C@H](O)[C@]12C [Taurocholic Acid, taurocholic acid]", "unitName": "RLU", "RLU": 502.94}
{"compound": "C[C@H](CCC(=O)O)[C@H]1CC[C@H]2[C@@H]3[C@H](O)C[C@@H]4C[C@H](O)CC[C@]4(C)[C@H]3C[C@H](O)[C@]12C [Cholic Acid, cholic acid]", "unitName": "RLU", "RLU": 639.921}
{"compound": "C[C@H](CCC(=O)NCCS(=O)(=O)O)[C@H]1CC[C@H]2[C@@H]3CC[C@@H]4C[C@H](O)CC[C@]4(C)[C@H]3CC[C@]12C [Taurolithocholic Acid, taurolithocholic acid]", "unitName": "RLU", "RLU": 327.359}

Origin of values: paper PMC10247784
